- assay-overview: PK study in mice
- Assay type: in vivo
- measurement-context: male, ICR, mouse, plasma, iv, 1 mg/kg

| molecule | AUC(0-inf) / ng·h/mL |
| --- | --- |
| C[C@@H](c1ccc(-n2cnc3c(N)ncnc32)cc1)N1Cc2nn(C)c(Cc3ccccc3)c2C1=O [compound 63] | 644 |
| Cn1nnc(C(=O)NCc2ccc(-n3cnc4c(N)ncnc43)cc2)c1Cc1ccccc1 [compound 49] | 1420 |
| Cn1ncc(C(=O)NCc2ccc(-n3cnc4c(N)ncnc43)cc2)c1Cc1ccccc1 [compound 39] | 882 |
| C[C@H](NC(=O)c1cnn(C)c1Cc1ccccc1)c1ccc(-n2cnc3c(N)ncnc32)cc1 [compound 54] | 672 |
| Cn1nc(Cl)c(C(=O)NCc2ccc(-n3cnc4c(N)ncnc43)cc2)c1Cc1ccccc1 [compound 48] | 1310 |
